Measured values drawn from the supplement of paper PMC10627819 for this set.

# Test system: S. pneumoniae D39V
# experiment.description: Bliss interaction score (quartile over a dose matrix) (fitness difference); higher = more antagonism (negative = synergy)
measurement.label: Bliss interaction score
The answer should be a number; do not append a unit.

# compound CC1=C(C(=O)O)N2C(=O)[C@@H](NC(=O)[C@H](N)c3ccccc3)[C@H]2SC1 [Cephalexin] + N[C@@H]1CONC1=O [CycloserineD] ; its Bliss interaction score = -0.117

# compound CC[C@H]1OC(=O)[C@H](C)[C@@H](O[C@H]2C[C@@](C)(OC)[C@@H](O)[C@H](C)O2)[C@H](C)[C@@H](O[C@@H]2O[C@H](C)C[C@H](N(C)C)[C@H]2O)[C@](C)(O)C[C@@H](C)CN(C)[C@H](C)[C@@H](O)[C@]1(C)O [Azithromycin] + CO[C@@H]1[C@@H](OC(N)=O)[C@@H](O)[C@H](Oc2ccc3c(O)c(NC(=O)c4ccc(O)c(CC=C(C)C)c4)c(=O)oc3c2C)OC1(C)C [Novobiocin] ; its Bliss interaction score = -0.0647

# compound O=C(O)[C@H]1/C(=C/CO)O[C@@H]2CC(=O)N21 [Clavulanic] + CN1C2=CC=CC=C2N=C3C1=CC=CC3=O [Pyocyanin] ; its Bliss interaction score = 0.0705

# compound CN(N=O)C(=O)N[C@@H](C=O)[C@@H](O)[C@H](O)[C@H](O)CO [Streptozotocin] + Oc1cc(Cl)ccc1Oc1ccc(Cl)cc1Cl [Triclosan] ; its Bliss interaction score = -0.0506

* * *

# System: S. aureus Newman
# experiment.description: Bliss interaction score (quartile over a dose matrix) (fitness difference); higher = more antagonism (negative = synergy)
measurement.label: Bliss interaction score

# compound Cc1onc(-c2ccccc2)c1C(=O)N[C@@H]1C(=O)N2[C@@H]1SC(C)(C)[C@@H]2C(=O)O [Oxacillin] + CO[C@H]1/C=C/O[C@@]2(C)Oc3c(C)c(O)c4c(O)c(c(/C=N/N5CCN(C)CC5)c(O)c4c3C2=O)NC(=O)/C(C)=C\C=C\[C@H](C)[C@H](O)[C@@H](C)[C@@H](O)[C@@H](C)[C@H](OC(C)=O)[C@@H]1C [Rifampicin] ; its Bliss interaction score = 0.0684

# compound Oc1cc(Cl)ccc1Oc1ccc(Cl)cc1Cl [Triclosan] + CN[C@H](CC(C)C)C(=O)N[C@H]1C(=O)N[C@@H](CC(N)=O)C(=O)N[C@H]2C(=O)N[C@H]3C(=O)N[C@H](C(=O)N[C@H](C(=O)O)c4cc(O)cc(O)c4-c4cc3ccc4O)[C@H](O)c3ccc(c(Cl)c3)Oc3cc2cc(c3O[C@@H]2O[C@H](CO)[C@@H](O)[C@H](O)[C@H]2O[C@H]2C[C@](C)(N)[C@H](O)[C@H](C)O2)Oc2ccc(cc2Cl)[C@H]1O [Vancomycin] ; its Bliss interaction score = 0.0453

# compound O=C(O)[C@H]1/C(=C/CO)O[C@@H]2CC(=O)N21 [Clavulanic] + Cn1nnc(-c2ccc(-c3ccc(N4C[C@H](CO)OC4=O)cc3F)cn2)n1 [Tedizolid] ; its Bliss interaction score = 0.255

# compound Cc1onc(-c2ccccc2)c1C(=O)N[C@@H]1C(=O)N2[C@@H]1SC(C)(C)[C@@H]2C(=O)O [Oxacillin] + CN(C)c1cc(NC(=O)CNC(C)(C)C)c(O)c2c1C[C@H]1C[C@H]3[C@H](N(C)C)C(O)=C(C(N)=O)C(=O)[C@@]3(O)C(O)=C1C2=O [Tigecycline] ; its Bliss interaction score = 0.0567

# compound CC[C@H]1OC(=O)[C@H](C)C(=O)[C@H](C)[C@@H](O[C@@H]2O[C@H](C)C[C@H](N(C)C)[C@H]2O)[C@](C)(OC)C[C@@H](C)C(=O)[C@H](C)[C@H]2N(CCCCn3cnc(-c4cccnc4)c3)C(=O)O[C@]12C [Telithromycin] + Oc1cc(Cl)ccc1Oc1ccc(Cl)cc1Cl [Triclosan] ; its Bliss interaction score = 0.0266

# compound O=C(O)[C@H]1/C(=C/CO)O[C@@H]2CC(=O)N21 [Clavulanic] + Cc1ncc([N+](=O)[O-])n1CCO [Metronidazole] ; its Bliss interaction score = -0.112

# compound Clc1ccc(COC(Cn2ccnc2)c2ccc(Cl)cc2Cl)c(Cl)c1 (centres undefined) [Miconazole] + Cn1nnc(-c2ccc(-c3ccc(N4C[C@H](CO)OC4=O)cc3F)cn2)n1 [Tedizolid] ; its Bliss interaction score = 0.0625

# compound Oc1cc(Cl)ccc1Oc1ccc(Cl)cc1Cl [Triclosan] + CC1=C\[C@@H](O)CC(=O)Cc2nc(co2)C(=O)N2CCC=C2C(=O)O[C@H](C(C)C)[C@H](C)/C=C/C(=O)NC\C=C\1 [Virginiamycin M1] ; its Bliss interaction score = 0.034

# compound O=C(O)[C@H]1/C(=C/CO)O[C@@H]2CC(=O)N21 [Clavulanic] + CN(C)[C@@H]1C(O)=C(C(N)=O)C(=O)[C@@]2(O)C(O)=C3C(=O)c4c(O)ccc(Cl)c4[C@@](C)(O)[C@H]3C[C@@H]12 [Clortetracycline] ; its Bliss interaction score = 0.161

# compound CC1=C(C(=O)O)N2C(=O)[C@@H](NC(=O)[C@H](N)c3ccccc3)[C@H]2SC1 [Cephalexin] + C[C@H]1c2cccc(O)c2C(=O)C2=C(O)[C@]3(O)C(=O)C(C(N)=O)=C(O)[C@@H](N(C)C)[C@@H]3[C@@H](O)[C@@H]21 [Doxycycline] ; its Bliss interaction score = 0.0562

# compound CC[C@H]1OC(=O)[C@H](C)[C@@H](O[C@H]2C[C@@](C)(OC)[C@@H](O)[C@H](C)O2)[C@H](C)[C@@H](O[C@@H]2O[C@H](C)C[C@H](N(C)C)[C@H]2O)[C@](C)(O)C[C@@H](C)CN(C)[C@H](C)[C@@H](O)[C@]1(C)O [Azithromycin] + CN[C@@H]1[C@H](O)[C@H](NC)[C@H]2O[C@@]3(O)C(=O)C[C@@H](C)O[C@H]3O[C@@H]2[C@H]1O [Spectinomycin] ; its Bliss interaction score = -0.124

# compound Clc1ccc(COC(Cn2ccnc2)c2ccc(Cl)cc2Cl)c(Cl)c1 (centres undefined) [Miconazole] + CO[C@H]1/C=C/O[C@@]2(C)Oc3c(C)c(O)c4c(O)c(c(/C=N/N5CCN(C)CC5)c(O)c4c3C2=O)NC(=O)/C(C)=C\C=C\[C@H](C)[C@H](O)[C@@H](C)[C@@H](O)[C@@H](C)[C@H](OC(C)=O)[C@@H]1C [Rifampicin] ; its Bliss interaction score = 0.0801

# compound Cn1c2cccc(=O)c-2nc2ccccc21 [Pyocyanin] + CC1=C\[C@@H](O)CC(=O)Cc2nc(co2)C(=O)N2CCC=C2C(=O)O[C@H](C(C)C)[C@H](C)/C=C/C(=O)NC\C=C\1 [Virginiamycin M1] ; its Bliss interaction score = 0.0515

# compound CC[C@H]1OC(=O)[C@H](C)[C@@H](O[C@H]2C[C@@](C)(OC)[C@@H](O)[C@H](C)O2)[C@H](C)[C@@H](O[C@@H]2O[C@H](C)C[C@H](N(C)C)[C@H]2O)[C@](C)(O)C[C@@H](C)CN(C)[C@H](C)[C@@H](O)[C@]1(C)O [Azithromycin] + C1=CC(=CC(=C1)Cl)NN=C(C#N)C#N [CCCP] ; its Bliss interaction score = -0.0482

* * *

# Tested on: B. subtilis 168;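 also: OD595 on entry to stationary phase over no-drug wells; at most 1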
# experiment.description: fitness (endpoint OD595 vs no drug) (fraction); higher = more growth
# condition.set: first compound 0.25 µg/mL; partner 4 µg/mL
Kindly state fitness for each of the entries shown.
The answer should be a number; do not append a unit.

# compound CC[C@H]1OC(=O)[C@H](C)[C@@H](O[C@H]2C[C@@](C)(OC)[C@@H](O)[C@H](C)O2)[C@H](C)[C@@H](O[C@@H]2O[C@H](C)C[C@H](N(C)C)[C@H]2O)[C@](C)(O)C[C@@H](C)CN(C)[C@H](C)[C@@H](O)[C@]1(C)O [Azithromycin] + Cc1cc(NS(=O)(=O)c2ccc(N)cc2)no1 [Sulfamethoxazol] ; its fitness = 0.895

# compound CC[C@H]1OC(=O)[C@H](C)[C@@H](O[C@H]2C[C@@](C)(OC)[C@@H](O)[C@H](C)O2)[C@H](C)[C@@H](O[C@@H]2O[C@H](C)C[C@H](N(C)C)[C@H]2O)[C@](C)(O)C[C@@H](C)CN(C)[C@H](C)[C@@H](O)[C@]1(C)O [Azithromycin] + COc1c(N2C[C@@H]3CCCN[C@@H]3C2)c(F)cc2c(=O)c(C(=O)O)cn(C3CC3)c12 [Moxifloxacin] ; its fitness = 0.0147

# compound CC[C@H]1OC(=O)[C@H](C)[C@@H](O[C@H]2C[C@@](C)(OC)[C@@H](O)[C@H](C)O2)[C@H](C)[C@@H](O[C@@H]2O[C@H](C)C[C@H](N(C)C)[C@H]2O)[C@](C)(O)C[C@@H](C)CN(C)[C@H](C)[C@@H](O)[C@]1(C)O [Azithromycin] + CN[C@@H]1[C@H](O)[C@H](NC)[C@H]2O[C@@]3(O)C(=O)C[C@@H](C)O[C@H]3O[C@@H]2[C@H]1O [Spectinomycin] ; its fitness = 0.895

# compound CC1=C(C(=O)O)N2C(=O)[C@@H](NC(=O)[C@H](N)c3ccccc3)[C@H]2SC1 [Cephalexin] + CN[C@@H]1[C@H](O)[C@H](NC)[C@H]2O[C@@]3(O)C(=O)C[C@@H](C)O[C@H]3O[C@@H]2[C@H]1O [Spectinomycin] ; its fitness = 0.978

# compound CC1=C(C(=O)O)N2C(=O)[C@@H](NC(=O)[C@H](N)c3ccccc3)[C@H]2SC1 [Cephalexin] + Cc1cc(NS(=O)(=O)c2ccc(N)cc2)no1 [Sulfamethoxazol] ; its fitness = 0.929

# compound CC1=C(C(=O)O)N2C(=O)[C@@H](NC(=O)[C@H](N)c3ccccc3)[C@H]2SC1 [Cephalexin] + COc1c(N2C[C@@H]3CCCN[C@@H]3C2)c(F)cc2c(=O)c(C(=O)O)cn(C3CC3)c12 [Moxifloxacin] ; its fitness = 0.0392
